From: ChEMBL document CHEMBL1130154

Molecular target: UniProt:P00734
Square brackets hold non-standard residues; d marks the D form. Peptide text beside a SMILES is read from it. Tic = O=C(O)[C@@H]1Cc2ccccc2CN1
The threshold is 20 nM. Values of IC50 beneath it are tagged true; values meeting or exceeding it are tagged false.

Recorded results for 4 compounds are shown here.
>>> assigned_class("CC(C)(C)OC(=O)N[C@@H](C(=O)N1CCC[C@H]1C(=O)N[C@H](C=O)CCCNC(=N)N)c1cccc2ccccc12")
"false"
>>> assigned_class("CO[C@@H](C(=O)N1CCC[C@H]1C(=O)N[C@H](C=O)CCCN=C(N)N)c1ccccc1")
"false"
>>> assigned_class("CC(C)(C)OC(=O)N[C@@H](C(=O)N1CCC[C@H]1C(=O)N[C@H](C=O)CCCNC(=N)N)c1ccc2ccccc2c1")
"true"
>>> assigned_class("N=C(N)NCCC[C@@H](C=O)NC(=O)[C@@H]1CCCN1C(=O)[C@@H]1Cc2ccccc2CN1 (H-[Tic]-Pro-Arg-aldehyde)")
"false"

For this compound, is IC50 lower than 20 nM? N=C(N)NCCC[C@@H](C=O)NC(=O)[C@@H]1CCCN1C(=O)[C@H]1NCCc2ccccc21 true
